Kindly find below IC50 information for UniProt O95271 taken from the literature.
Note to self: use rule met only for IC50 readings below 1000 nM; a reading exactly at 1000 nM still gets rule not met.

1. N#CCN(Cc1nc2c(c(=O)[nH]1)COCC2)C(=O)CN1CCC(C(=O)c2ccc(F)cc2)CC1	rule not met
2. COc1ccc2c(c1)CCCN2C(=O)C1CCN(CC(=O)NCc2nc3c(c(=O)[nH]2)COCC3)CC1	rule not met
3. Cc1cc(C)n2ncc(C(=O)N[C@H]3CC[C@@]4(CCN(c5cc(C)c(F)cc5Cl)C4=O)CC3)c2n1	rule met
4. O=C(CCc1ccccc1)N(Cc1nc2c(c(=O)[nH]1)COCC2)Cc1cccs1	rule not met
5. C[C@H](c1ccccc1)N(Cc1nc2c(c(=O)[nH]1)COCC2)S(=O)(=O)Cc1ccccc1	rule not met
6. O=c1[nH]c2c(c3ccccc13)CO[C@H](C1CCCC1)C2 (single isomer, unassigned)	rule met
7. Cn1ccc2c(=O)[nH]c(N3C[C@@H]4C[C@H]3CN4c3cccc(F)c3)nc21	rule not met
8. CNC(=O)c1nc[nH]c1C(=O)N[C@H]1CC[C@H](C(=O)Nc2cnccc2Cl)CC1	rule met

====

pIC50: −log10 of the molar value.
Kindly find below pIC50 information for Poly [ADP-ribose] polymerase tankyrase-1 (Homo sapiens, UniProt O95271) taken from the literature.
measuredProperty: pIC50

1) Cc1cc(N2CC[C@]3(CC[C@@H](NC(=O)c4[nH]cnc4C(=O)NCCN4CCC(C)CC4)CC3)C2=O)c(Cl)cc1F	8.21
2) Cc1ccnc2c(C(=O)N[C@H]3CC[C@@]4(CCN(c5ccc(F)cc5Cl)C4=O)CC3)cnn12	7.89
3) Cn1ccc2c(=O)[nH]c(N3CCN(S(C)(=O)=O)CC3)nc21	6.95
4) Cn1ccc2c(=O)[nH]c(N3CCN(c4cc(Cl)cc(Cl)c4)CC3)nc21	6.31
5) Nc1nn2cccnc2c1C(=O)N[C@H]1CC[C@H](C(=O)Nc2ccc(F)cc2Cl)CC1	6.02
6) COc1ccc2c(c1)CC1(CCN(CC(=O)N(Cc3nc4c(c(=O)[nH]3)COCC4)CC3CC3)CC1)C2=O	8.00
7) CNC(=O)c1nc[nH]c1C(=O)N[C@H]1CC[C@H](C(=O)Nc2cc(F)c(F)cc2Cl)CC1	8.00
8) O=c1[nH]c(-c2ccc(C(F)(F)F)cc2)nc2c1ccn2C1CC1	6.26

====

Kindly find below IC50 information for UniProt:O95271 taken from the literature.
measuredProperty: IC50

1. CN1c2ccccc2C(=O)NC1c1c[nH]nc1-c1ccc(OCc2ccccc2)c(F)c1 (centres unmarked)	< 0.005 µM
2. COc1cccc(-c2n[nH]cc2C2NC(=O)c3ccccc3N2C)c1 (centres unmarked)	0.005 to 0.02 µM
3. CN1CCN(c2ccc(-c3cccc(-c4n[nH]cc4C4NC(=O)c5ccccc5N4C)c3)cc2)CC1 (centres unmarked)	0.02 to 0.05 µM
4. O=C(CN1CCC(C(=O)c2ccc(OCC3CCC3)cc2)CC1)NCc1nc2c(c(=O)[nH]1)COCC2	0.03 µM
5. CN1c2ccccc2C(=O)NC1c1c[nH]nc1-c1ccc(-c2ccc(N3CCOCC3)cc2)cc1 (centres unmarked)	0.005 to 0.02 µM
6. O=C1NC(c2n[nH]nc2-c2ccc(OCC(F)F)cc2)N2CCc3cccc1c32 (centres unmarked)	0.005 to 0.02 µM
7. O=C(NCC1CCCO1)c1nc[nH]c1C(=O)N[C@H]1CC[C@H](C(=O)Nc2cc(C(F)(F)F)ccc2Cl)CC1 (some centres unmarked)	0.15 µM
8. COCCOc1ccc(C(=O)C2CCN(CC(=O)NCc3nc4c(c(=O)[nH]3)COCC4)CC2)cc1	0.026 µM
9. CN1c2ccccc2C(=O)NC1c1c[nH]nc1-c1ccc(-c2ccnc3ccccc23)cc1 (centres unmarked)	0.02 to 0.05 µM
10. CN1c2ccccc2C(=O)NC1c1c[nH]nc1-c1ccc(Br)c(F)c1 (centres unmarked)	< 0.005 µM
11. CC(C)(C)OC(=O)N1CCN(c2ccn3ncc(C(=O)N[C@H]4CC[C@@]5(CCN(c6ccc(F)cc6Cl)C5=O)CC4)c3n2)CC1	0.006 µM
12. CCCn1ccc2c(=O)[nH]c(-c3ccc(C(F)(F)F)cc3)nc21	0.535 µM
13. CC(C)(C)C1Cc2[nH]c(=O)c3cccnc3c2CO1 (racemic)	0.0346 µM
14. O=C(c1cc(Cc2n[nH]c(=O)c3ccccc23)ccc1F)N1CC[C@@H](Nc2ncc(Br)cn2)C1	0.05 to 0.3 µM
15. CN1c2ccccc2C(=O)NC1c1c[nH]nc1-c1cccc(F)c1 (centres unmarked)	< 0.02 µM
16. O=C(N[C@H]1CC[C@H](C(=O)Nc2ccc(F)cc2Cl)CC1)c1[nH]cnc1C(=O)N1CC2(CCS2(=O)=O)C1	0.01 µM
17. Cc1cc(NC(=O)[C@H]2CC[C@H](NC(=O)c3cnn4cccnc34)CC2)c(Cl)cc1F	0.17 µM
18. CCCOc1ccc(-c2n[nH]nc2C2NC(=O)c3cccc(C)c3N2)cc1 (centres unmarked)	0.005 to 0.02 µM
19. Cc1cc(C(F)F)n2ncc(C(=O)N[C@H]3CC[C@@]4(CCN(c5ccc(F)cc5Cl)C4=O)CC3)c2n1	0.014 µM
20. COC(=O)c1ccc(-c2n[nH]cc2C2NC(=O)c3ccccc3N2C)cc1 (centres unmarked)	0.02 to 0.05 µM
21. O=C(N[C@H]1CC[C@H](C(=O)Nc2ccc(F)cc2Cl)CC1)c1cnn2ccccc12	> 10 µM
22. COc1ccc(-c2n[nH]cc2C2NC(=O)c3cccc4c3N2CC4)cc1 (centres unmarked)	< 0.005 µM
23. CN1c2ccccc2C(=O)NC1c1c[nH]nc1-c1ccc(N)cc1 (centres unmarked)	0.005 to 0.02 µM
